Value source: patent US20240150375A1

# STUDY SYSTEM: Ba/F3 EGFR-Del19/T790M/C797S (Homo sapiens, UniProt P00533, T790M/C797S, cells depend on it, form not given)
# Sequence (P00533 with tags, fused parts or gaps DEL746-750/T790M/C797S, form open): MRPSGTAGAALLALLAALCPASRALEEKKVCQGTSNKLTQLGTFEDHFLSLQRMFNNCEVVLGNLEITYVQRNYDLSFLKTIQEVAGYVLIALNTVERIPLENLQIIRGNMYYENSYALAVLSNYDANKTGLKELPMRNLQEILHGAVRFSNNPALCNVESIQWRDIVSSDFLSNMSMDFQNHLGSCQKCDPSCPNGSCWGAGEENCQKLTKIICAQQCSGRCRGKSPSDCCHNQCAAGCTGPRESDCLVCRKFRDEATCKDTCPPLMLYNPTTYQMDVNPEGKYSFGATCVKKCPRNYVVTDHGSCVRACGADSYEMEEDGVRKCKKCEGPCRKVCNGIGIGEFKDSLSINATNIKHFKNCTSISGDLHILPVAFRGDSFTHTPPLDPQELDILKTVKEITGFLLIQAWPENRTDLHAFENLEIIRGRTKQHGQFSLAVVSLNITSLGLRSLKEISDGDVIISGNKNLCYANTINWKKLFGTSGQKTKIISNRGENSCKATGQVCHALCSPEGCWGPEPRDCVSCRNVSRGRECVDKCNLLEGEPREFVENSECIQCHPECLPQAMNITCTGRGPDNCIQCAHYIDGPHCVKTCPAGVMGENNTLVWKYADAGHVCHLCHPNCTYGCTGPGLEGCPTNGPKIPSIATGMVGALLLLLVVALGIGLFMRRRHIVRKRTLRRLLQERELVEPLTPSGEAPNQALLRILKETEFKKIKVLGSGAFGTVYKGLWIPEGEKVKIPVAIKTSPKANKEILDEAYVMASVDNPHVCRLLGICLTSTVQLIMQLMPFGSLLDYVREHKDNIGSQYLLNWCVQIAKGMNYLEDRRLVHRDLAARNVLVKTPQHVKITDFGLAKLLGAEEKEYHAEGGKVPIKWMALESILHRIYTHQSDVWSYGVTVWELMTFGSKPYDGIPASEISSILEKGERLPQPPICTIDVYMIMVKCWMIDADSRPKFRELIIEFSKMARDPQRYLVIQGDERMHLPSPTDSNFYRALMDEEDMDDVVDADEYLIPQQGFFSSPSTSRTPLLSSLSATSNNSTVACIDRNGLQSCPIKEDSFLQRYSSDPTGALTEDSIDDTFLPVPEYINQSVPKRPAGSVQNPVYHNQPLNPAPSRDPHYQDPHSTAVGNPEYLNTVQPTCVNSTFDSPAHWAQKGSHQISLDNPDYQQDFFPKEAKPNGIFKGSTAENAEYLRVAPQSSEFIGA
# TEST: Ba/F3 viability assay (CellTiter-Glo), EGFR-Del19/T790M/C797S (DTC)
# Assay type: cell-based
# SETTINGS: Ba/F3 EGFR-Del19/T790M/C797S anti-proliferation; read-out: BAF3 DTC IC50
ASSAY READOUT: GI50

Take a look at these entries with their results.
[[record]]
compound = "C[C@H]1CCOc2c(cnn2C)-c2nccc(n2)Nc2cc(ccn2)O1"
result = "100 to 1000 nM"

[[record]]
compound = "C[C@H]1CCOc2c(cnn2C)-c2nccc(n2)Nc2cc(c(Cl)cn2)O1"
result = "100 to 1000 nM"

[[record]]
compound = "CCOc1nn(C2CC3CCC(C2)O3)cc1-c1cnc2cc1O[C@@H](C)CCOc1c(cnn1C)-c1nccc(n1)N2 (stereo partly drawn)"
result = "< 50 nM"

[[record]]
compound = "COc1cc(CN2CCN(C)CC2)ccc1-c1cnc2cc1O[C@@H](C)CCOc1c(cnn1C)-c1nccc(n1)N2"
result = "< 50 nM"

[[record]]
compound = "CCOc1nn(-c2ccncc2)cc1-c1cnc2cc1O[C@@H](C)CCOc1c(cnn1C)-c1nccc(n1)N2"
result = "< 50 nM"


[ask] Bench note: what GI50 did CCOc1cc(-c2cnc3cc2O[C@@H](C)CCOc2c(cnn2C)-c2nccc(n2)N3)ccc1CN1CCN(C)CC1 show?
[reply] < 50 nM

[ask] Bench note: what GI50 did C[C@H]1CCOc2c(cnn2C)-c2nccc(n2)Nc2cc(c(-c3ccnn3CCN3CCOCC3)cn2)O1 show?
[reply] ≥ 1000 nM

[ask] Bench note: what GI50 did C[C@H]1CCOc2c(cnn2C)-c2nccc(n2)Nc2cc(c(-c3cn(C4CN(C5COC5)C4)nc3OCCF)cn2)O1 show?
[reply] < 50 nM

[ask] Bench note: what GI50 did C[C@H]1CCOc2c(cnn2C)-c2nccc(n2)Nc2cc(c(-c3cnc(N4CCN(C)CC4)n3C)cn2)O1 show?
[reply] < 50 nM

----------
# STUDY SYSTEM: Ba/F3 EGFR-Del19/C797S (Homo sapiens, UniProt P00533, C797S, cells depend on it, form not given)
# Sequence (P00533 with tags, fused parts or gaps DEL746-750/C797S, form open): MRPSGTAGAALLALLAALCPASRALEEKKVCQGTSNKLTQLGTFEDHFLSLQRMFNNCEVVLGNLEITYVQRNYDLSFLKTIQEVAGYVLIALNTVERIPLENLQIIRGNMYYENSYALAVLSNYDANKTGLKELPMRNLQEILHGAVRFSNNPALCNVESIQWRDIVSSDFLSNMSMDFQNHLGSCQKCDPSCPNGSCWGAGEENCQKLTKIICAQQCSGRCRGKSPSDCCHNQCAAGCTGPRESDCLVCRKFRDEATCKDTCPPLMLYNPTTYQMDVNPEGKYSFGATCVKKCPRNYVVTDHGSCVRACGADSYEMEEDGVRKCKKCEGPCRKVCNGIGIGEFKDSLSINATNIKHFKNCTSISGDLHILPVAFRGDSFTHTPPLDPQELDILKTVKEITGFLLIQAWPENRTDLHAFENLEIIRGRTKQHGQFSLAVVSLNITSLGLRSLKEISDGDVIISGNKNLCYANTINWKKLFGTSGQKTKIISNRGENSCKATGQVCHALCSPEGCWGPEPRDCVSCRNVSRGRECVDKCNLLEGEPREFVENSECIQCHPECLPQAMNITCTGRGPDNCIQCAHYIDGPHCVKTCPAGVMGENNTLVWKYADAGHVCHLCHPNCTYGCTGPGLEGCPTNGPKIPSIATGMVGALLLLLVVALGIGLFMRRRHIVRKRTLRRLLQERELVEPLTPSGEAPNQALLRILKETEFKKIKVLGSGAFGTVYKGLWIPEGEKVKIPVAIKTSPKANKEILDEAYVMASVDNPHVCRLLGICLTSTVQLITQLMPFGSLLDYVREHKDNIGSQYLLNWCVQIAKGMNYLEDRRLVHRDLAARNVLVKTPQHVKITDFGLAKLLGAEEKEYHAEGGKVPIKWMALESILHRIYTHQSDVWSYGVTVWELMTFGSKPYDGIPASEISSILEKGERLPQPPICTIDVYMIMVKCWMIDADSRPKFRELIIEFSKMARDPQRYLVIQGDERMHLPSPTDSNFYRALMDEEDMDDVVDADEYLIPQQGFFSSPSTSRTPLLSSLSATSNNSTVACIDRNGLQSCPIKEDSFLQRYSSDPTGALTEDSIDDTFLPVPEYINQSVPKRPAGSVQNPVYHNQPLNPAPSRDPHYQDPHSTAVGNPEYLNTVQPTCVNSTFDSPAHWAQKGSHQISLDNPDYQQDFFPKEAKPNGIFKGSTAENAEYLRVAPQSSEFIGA
# TEST: Ba/F3 viability assay (CellTiter-Glo), EGFR-Del19/C797S (DC)
# Type: cell-based
# SETTINGS: Ba/F3 EGFR-Del19/C797S anti-proliferation; read-out: BAF3 DC IC50
ASSAY READOUT: GI50

Take a look at these entries with their results.
[[record]]
compound_structure = "C[C@H]1CCOc2c(cnn2C)-c2nccc(n2)Nc2cc(c(-c3cn(CCN4CCCC4)nc3OCC(F)(F)F)cn2)O1"
result = "< 50 nM"

[[record]]
compound_structure = "CC(C)n1cc(-c2cnc3cc2O[C@@H](C)CCOc2c(cnn2C)-c2nccc(n2)N3)c(OCC(F)F)n1"
result = "< 50 nM"


Moving on to another molecule below.
[ask] Bench note: what GI50 did C[C@H]1CCOc2c(cnn2C)-c2nccc(n2)Nc2cc(c(-c3cc(CN4CCOCC4)n(C)n3)cn2)O1 show?
[reply] < 50 nM
